Target: T1, human Trop-2 expressed on cell surface (human, UniProt P09758 27-323)
T1 sequence (looked up): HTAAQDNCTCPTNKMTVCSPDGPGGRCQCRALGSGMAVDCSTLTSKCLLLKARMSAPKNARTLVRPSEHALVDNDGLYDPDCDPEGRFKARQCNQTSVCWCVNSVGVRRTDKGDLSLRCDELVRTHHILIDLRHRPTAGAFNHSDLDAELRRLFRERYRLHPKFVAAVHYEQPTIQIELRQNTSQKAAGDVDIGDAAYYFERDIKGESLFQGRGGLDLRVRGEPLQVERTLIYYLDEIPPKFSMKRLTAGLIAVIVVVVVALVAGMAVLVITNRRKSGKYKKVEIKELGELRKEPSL
Experiment: cell-based or functional assay
quantity_measured: Internalization %, MCF-7, 0.5 µg/ml, 1 h (%)
Reply with just the number (in %).

1. 10A9 (antibody, V domains shown, Rabbit-derived clone; LEM construct: VH + rabbit IgG CH1 + human IgG1 CH2-CH3) VH: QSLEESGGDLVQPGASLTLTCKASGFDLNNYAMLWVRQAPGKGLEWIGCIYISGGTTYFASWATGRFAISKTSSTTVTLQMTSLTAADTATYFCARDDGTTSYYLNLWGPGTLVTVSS VL: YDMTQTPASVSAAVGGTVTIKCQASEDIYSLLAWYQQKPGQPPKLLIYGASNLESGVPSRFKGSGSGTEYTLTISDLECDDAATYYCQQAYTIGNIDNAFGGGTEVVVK; 26
2. 9D7 (antibody, V domains shown, Rabbit-derived clone; LEM construct: VH + rabbit IgG CH1 + human IgG1 CH2-CH3) VH: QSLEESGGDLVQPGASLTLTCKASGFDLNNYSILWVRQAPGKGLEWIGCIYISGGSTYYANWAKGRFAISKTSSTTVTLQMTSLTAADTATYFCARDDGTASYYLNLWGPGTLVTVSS VL: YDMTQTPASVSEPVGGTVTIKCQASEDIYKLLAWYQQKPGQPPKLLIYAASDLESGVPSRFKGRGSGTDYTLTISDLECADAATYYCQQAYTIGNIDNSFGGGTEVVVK; 46
3. 72F12 (antibody, V domains shown, Rabbit-derived clone; LEM construct: VH + rabbit IgG CH1 + human IgG1 CH2-CH3) VH: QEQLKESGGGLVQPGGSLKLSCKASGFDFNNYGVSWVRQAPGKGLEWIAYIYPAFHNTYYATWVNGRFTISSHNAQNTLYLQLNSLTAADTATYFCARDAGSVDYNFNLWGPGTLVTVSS VL: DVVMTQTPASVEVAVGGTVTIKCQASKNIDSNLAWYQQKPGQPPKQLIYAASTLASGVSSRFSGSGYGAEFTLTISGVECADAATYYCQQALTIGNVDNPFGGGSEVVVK; 24
4. 66A1 (antibody, V domains shown, Rabbit-derived clone; LEM construct: VH + rabbit IgG CH1 + human IgG1 CH2-CH3) VH: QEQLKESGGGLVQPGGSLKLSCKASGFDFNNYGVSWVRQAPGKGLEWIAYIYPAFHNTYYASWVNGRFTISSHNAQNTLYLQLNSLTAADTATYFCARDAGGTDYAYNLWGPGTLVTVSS VL: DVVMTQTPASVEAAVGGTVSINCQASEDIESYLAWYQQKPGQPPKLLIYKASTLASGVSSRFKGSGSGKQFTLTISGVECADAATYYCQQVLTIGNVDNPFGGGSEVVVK; 33
5. 9F7 (antibody, V domains shown, Rabbit-derived clone; LEM construct: VH + rabbit IgG CH1 + human IgG1 CH2-CH3) VH: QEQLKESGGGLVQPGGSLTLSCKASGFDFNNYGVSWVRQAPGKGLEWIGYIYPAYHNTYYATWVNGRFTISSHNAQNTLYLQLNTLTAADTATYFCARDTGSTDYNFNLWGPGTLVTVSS VL: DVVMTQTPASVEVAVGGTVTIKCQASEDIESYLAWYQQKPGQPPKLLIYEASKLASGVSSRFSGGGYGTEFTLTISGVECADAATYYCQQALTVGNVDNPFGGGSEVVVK; 29

## Task Tell me its Internalization %, MCF-7, 0.5 µg/ml, 1 h given 5D4 (antibody, V domains shown, Rabbit-derived clone; LEM construct: VH + rabbit IgG CH1 + human IgG1 CH2-CH3) VH: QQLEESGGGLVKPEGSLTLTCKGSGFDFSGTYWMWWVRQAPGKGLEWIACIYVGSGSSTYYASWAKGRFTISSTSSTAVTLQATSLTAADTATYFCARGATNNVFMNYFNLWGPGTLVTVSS VL: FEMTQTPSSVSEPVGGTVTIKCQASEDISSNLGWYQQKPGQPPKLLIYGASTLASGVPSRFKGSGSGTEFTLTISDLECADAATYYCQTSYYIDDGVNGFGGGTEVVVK as the entry.
## Result 62

## Task Tell me its Internalization %, MCF-7, 0.5 µg/ml, 1 h given 65D5 (antibody, V domains shown, Rabbit-derived clone; LEM construct: VH + rabbit IgG CH1 + human IgG1 CH2-CH3) VH: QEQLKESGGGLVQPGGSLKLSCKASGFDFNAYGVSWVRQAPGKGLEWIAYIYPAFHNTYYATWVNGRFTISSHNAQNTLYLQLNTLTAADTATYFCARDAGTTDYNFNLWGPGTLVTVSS VL: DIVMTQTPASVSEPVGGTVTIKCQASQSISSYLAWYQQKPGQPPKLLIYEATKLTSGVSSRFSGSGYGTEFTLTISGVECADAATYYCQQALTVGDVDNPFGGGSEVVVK as the entry.
## Result 23
